Origin of values: patent US11771738B2

Exercise: for every item that follows, state its recorded minimal effective concentration.
Test system: third stage larvae of Haemonchus contortus
Assay: Haemonchus contortus, Larvae Stage 3 (HcL3) In Vitro Assay
Format: cell-based
Condition label: Haemonchus contortus, 96 h, read-out: HcL3 MED, Minimum Effective Dose, H. contortus third stage larvae, approximately 96 hours

Incoming: Could you tell me which minimal effective concentration is on file for CC(C)C[C@H]1C(=O)O[C@H](Cc2ccc(Cc3occc3C#N)cc2)C(=O)N(C)[C@@H](CC(C)C)C(=O)O[C@H](C)C(=O)N(C)[C@@H](CC(C)C)C(=O)O[C@H](Cc2ccccc2)C(=O)N(C)[C@@H](CC(C)C)C(=O)O[C@H](C)C(=O)N1C [Example 4-40] ?
Outgoing: 0.5 µM

Incoming: Param item = CC(C)C[C@H]1C(=O)O[C@H](Cc2ccc(Cc3cnc(N4CCOCC4)nc3)cc2)C(=O)N(C)[C@@H](CC(C)C)C(=O)O[C@H](C)C(=O)N(C)[C@@H](CC(C)C)C(=O)O[C@H](Cc2ccc(Cc3cnc(N4CCOCC4)nc3)cc2)C(=O)N(C)[C@@H](CC(C)C)C(=O)O[C@H](C)C(=O)N1C [Example 3-178] ; retrieve measured minimal effective concentration.
Outgoing: > 100 µM

Incoming: // lookup minimal effective concentration for CC(C)C[C@H]1C(=O)O[C@H](Cc2ccc(Cc3ccoc3)cc2)C(=O)N(C)[C@@H](CC(C)C)C(=O)O[C@H](C)C(=O)N(C)[C@@H](CC(C)C)C(=O)O[C@H](Cc2ccc(Cc3ccoc3)cc2)C(=O)N(C)[C@@H](CC(C)C)C(=O)O[C@H](C)C(=O)N1C [Example 3-173]
Outgoing: 3.3 µM

Incoming: May I ask what minimal effective concentration has been recorded for CC(C)C[C@H]1C(=O)O[C@H](Cc2ccc(Cc3cncnc3C3CC3)cc2)C(=O)N(C)[C@@H](CC(C)C)C(=O)O[C@H](C)C(=O)N(C)[C@@H](CC(C)C)C(=O)O[C@H](Cc2ccc(Cc3cncnc3C3CC3)cc2)C(=O)N(C)[C@@H](CC(C)C)C(=O)O[C@H](C)C(=O)N1C [Example 3-289] ?
Outgoing: 3.3 µM

Incoming: Quick one: minimal effective concentration for CC(C)C[C@H]1C(=O)O[C@H](Cc2ccc(Cc3ccnn3C)cc2)C(=O)N(C)[C@@H](CC(C)C)C(=O)O[C@H](C)C(=O)N(C)[C@@H](CC(C)C)C(=O)O[C@H](Cc2ccccc2)C(=O)N(C)[C@@H](CC(C)C)C(=O)O[C@H](C)C(=O)N1C [Example 4-63] ?
Outgoing: 1 µM

Incoming: Bench note: what minimal effective concentration did Cc1noc(C)c1Cc1ccc(C[C@H]2OC(=O)[C@H](CC(C)C)N(C)C(=O)[C@@H](C)OC(=O)[C@H](CC(C)C)N(C)C(=O)[C@@H](Cc3ccc(Cc4c(C)noc4C)cc3)OC(=O)[C@H](CC(C)C)N(C)C(=O)[C@@H](C)OC(=O)[C@H](CC(C)C)N(C)C2=O)cc1 [Example 3-21] show?
Outgoing: 0.3 µM

Incoming: For the compound shown here, COc1cccc(C(C)(F)c2ccc(C[C@H]3OC(=O)[C@H](CC(C)C)N(C)C(=O)[C@@H](C)OC(=O)[C@H](CC(C)C)N(C)C(=O)[C@@H](Cc4ccc(C(C)(F)c5cccc(OC)n5)cc4)OC(=O)[C@H](CC(C)C)N(C)C(=O)[C@@H](C)OC(=O)[C@H](CC(C)C)N(C)C3=O)cc2)n1 (stereo partly shown) [Example 3-225] , give the reported minimal effective concentration.
Outgoing: > 100 µM

* * *

Record form. Attribute: DiMf/DiL4. Fill in for each entry.
System: D. immitis L4 larvae
Assay: Dirofilaria immitis, L4 Stage (DiL4) In Vitro Assay
Format: cell-based
Condition label: larval stage selectivity, ratio of DiMf MED to DiL4 MED
Just the number, please, no unit attached.

Incoming: Suppose we examine the compound CC(C)C[C@H]1C(=O)O[C@H](Cc2ccc(Cc3ccnn3C)cc2)C(=O)N(C)[C@@H](CC(C)C)C(=O)O[C@H](C)C(=O)N(C)[C@@H](CC(C)C)C(=O)O[C@H](Cc2ccccc2)C(=O)N(C)[C@@H](CC(C)C)C(=O)O[C@H](C)C(=O)N1C [Example 4-63] ; what DiMf/DiL4 value has been reported?
Outgoing: 1

Incoming: Form field: reported DiMf/DiL4 of CC(C)C[C@H]1C(=O)O[C@H](Cc2ccc(Cc3cccnc3F)cc2)C(=O)N(C)[C@@H](CC(C)C)C(=O)O[C@H](C)C(=O)N(C)[C@@H](CC(C)C)C(=O)O[C@H](Cc2ccc(Cc3cccnc3F)cc2)C(=O)N(C)[C@@H](CC(C)C)C(=O)O[C@H](C)C(=O)N1C [Example 3-323]
Outgoing: 10

Incoming: Reported DiMf/DiL4 for CCOC(c1ccc(C[C@H]2OC(=O)[C@H](CC(C)C)N(C)C(=O)[C@@H](C)OC(=O)[C@H](CC(C)C)N(C)C(=O)[C@@H](Cc3ccccc3)OC(=O)[C@H](CC(C)C)N(C)C(=O)[C@@H](C)OC(=O)[C@H](CC(C)C)N(C)C2=O)cc1)c1ccc(F)c(F)c1 (stereo partly shown) [Example 2-38] : what is it?
Outgoing: 50

Incoming: Looking for the measured DiMf/DiL4 of COc1ncccc1Cc1ccc(C[C@H]2OC(=O)[C@H](CC(C)C)N(C)C(=O)[C@@H](C)OC(=O)[C@H](CC(C)C)N(C)C(=O)[C@@H](Cc3ccc(Cc4cccnc4OC)cc3)OC(=O)[C@H](CC(C)C)N(C)C(=O)[C@@H](C)OC(=O)[C@H](CC(C)C)N(C)C2=O)cc1 [Example 3-31] , can you help?
Outgoing: 25

* * *

Field: minimal effective concentration. Provide a value for each of the compounds that follow.
Test system: third stage larvae of Haemonchus contortus
Assay: Haemonchus contortus, Larvae Stage 3 (HcL3) In Vitro Assay
Format: cell-based
Condition label: Haemonchus contortus, 96 h, read-out: HcL3 MED, Minimum Effective Dose, H. contortus third stage larvae, approximately 96 hours

Incoming: I'd like to know its minimal effective concentration. The compound in question is COc1ncc(Cc2ccc(C[C@H]3OC(=O)[C@H](CC(C)C)N(C)C(=O)[C@@H](C)OC(=O)[C@H](CC(C)C)N(C)C(=O)[C@@H](Cc4ccc(Cc5cnc(OC)c(F)c5)cc4)OC(=O)[C@H](CC(C)C)N(C)C(=O)[C@@H](C)OC(=O)[C@H](CC(C)C)N(C)C3=O)cc2)cc1F
Outgoing: > 100 µM

Incoming: Please give the measured minimal effective concentration for this compound: CC(C)C[C@H]1C(=O)O[C@H](Cc2ccc(Cc3cccnc3F)cc2)C(=O)N(C)[C@@H](CC(C)C)C(=O)O[C@H](C)C(=O)N(C)[C@@H](CC(C)C)C(=O)O[C@H](Cc2ccc(Cc3cccnc3F)cc2)C(=O)N(C)[C@@H](CC(C)C)C(=O)O[C@H](C)C(=O)N1C
Outgoing: 0.3 µM

Incoming: Need minimal effective concentration of CC(C)C[C@H]1C(=O)O[C@H](Cc2ccc(C(O)c3coc4ccccc34)cc2)C(=O)N(C)[C@@H](CC(C)C)C(=O)O[C@H](C)C(=O)N(C)[C@@H](CC(C)C)C(=O)O[C@H](Cc2ccccc2)C(=O)N(C)[C@@H](CC(C)C)C(=O)O[C@H](C)C(=O)N1C (stereo partly shown) , thanks.
Outgoing: > 10 µM

Incoming: GET /values?readout=minimal effective concentration&item= COc1ccccc1Cc1ccc(C[C@H]2OC(=O)[C@H](CC(C)C)N(C)C(=O)[C@@H](C)OC(=O)[C@H](CC(C)C)N(C)C(=O)[C@@H](Cc3ccc(Cc4ccccc4OC)cc3)OC(=O)[C@H](CC(C)C)N(C)C(=O)[C@@H](C)OC(=O)[C@H](CC(C)C)N(C)C2=O)cc1
Outgoing: > 10 µM

* * *

Kindly supply the reported DiMf/DiL4 values for the records listed here.
System: D. immitis L4 larvae
Assay: Dirofilaria immitis, L4 Stage (DiL4) In Vitro Assay
Format: cell-based
Condition label: larval stage selectivity, ratio of DiMf MED to DiL4 MED
Give your answer as a number; write no unit.

Incoming: Find the measured DiMf/DiL4: item CC(C)C[C@H]1C(=O)O[C@H](Cc2ccc(Cc3snnc3C(C)C)cc2)C(=O)N(C)[C@@H](CC(C)C)C(=O)O[C@H](C)C(=O)N(C)[C@@H](CC(C)C)C(=O)O[C@H](Cc2ccc(Cc3snnc3C(C)C)cc2)C(=O)N(C)[C@@H](CC(C)C)C(=O)O[C@H](C)C(=O)N1C [Example 3-228] , target or system D. immitis L4 larvae.
Outgoing: 20

Incoming: Reported DiMf/DiL4 for D. immitis L4 larvae, given CC(C)C[C@H]1C(=O)O[C@H](Cc2ccc(Cc3cncnc3C3CC3)cc2)C(=O)N(C)[C@@H](CC(C)C)C(=O)O[C@H](C)C(=O)N(C)[C@@H](CC(C)C)C(=O)O[C@H](Cc2ccc(Cc3cncnc3C3CC3)cc2)C(=O)N(C)[C@@H](CC(C)C)C(=O)O[C@H](C)C(=O)N1C [Example 3-289] ?
Outgoing: 6
